Origin of values: ChEMBL document CHEMBL5528065

system: Plasmodium falciparum; experiment: Antimalarial activity against Plasmodium falciparum expressing PKG T618Q mutant infected in human erythrocytes assessed as reduction in parasitemia incubated for 72 hrs by SYBR green I and Mitotracker deep red dye based flow cytometric analysis; assay type: functional, organism-based; conditions: Plasmodium falciparum, 72 h
Define the label as YES when EC50 is strictly less than 1000 nM and as NO in all remaining cases.

>  <compound>
CN1CCC(c2[nH]c(-c3ccc(F)cc3)c(-c3ccncc3)c2C#N)CC1.Cl.Cl

>  <cat>
NO

$$$$
>  <compound>
CN1CCC(c2cc(-c3ccncc3)c(-c3ccsc3)[nH]2)CC1.Cl.Cl

>  <cat>
NO

$$$$
>  <compound>
CN1CCC(C)(c2cc(-c3ccncc3)c(-c3ccc(F)cc3)[nH]2)CC1.Cl.Cl

>  <cat>
NO

$$$$
>  <compound>
CC(=O)O.CN1CCC(c2cc(-c3ccnc(C#N)c3)c(-c3ccc(F)cc3)[nH]2)CC1

>  <cat>
NO

$$$$
>  <compound>
CN1C2CCC1CC(c1cc(-c3ccncc3)c(-c3ccc(F)cc3)[nH]1)C2.Cl.Cl (stereo not drawn)

>  <cat>
YES

$$$$
>  <compound>
CN1CCC(c2cc(-c3ccn4nnnc4c3)c(-c3ccc(F)cc3)[nH]2)CC1.Cl.Cl

>  <cat>
NO

$$$$
>  <compound>
CN1CCC(c2cc(-c3ccnc(C(N)=O)c3)c(-c3ccc(F)cc3)[nH]2)CC1.Cl.Cl

>  <cat>
NO

$$$$
>  <compound>
CN1CCC(c2cc(-c3ccncc3)c(-c3ccc(C(F)(F)F)cc3)[nH]2)CC1.Cl.Cl

>  <cat>
YES

$$$$
>  <compound>
C[C@@H]1CN(C)CC[C@H]1c1cc(-c2ccncc2)c(-c2ccc(F)cc2)[nH]1.Cl.Cl (racemic)

>  <cat>
YES

$$$$
>  <compound>
CN1CCC(c2cc(-c3ccnc(Br)c3)c(-c3ccc(F)cc3)[nH]2)CC1.Cl.Cl

>  <cat>
NO

$$$$
>  <compound>
Cc1cnccc1-c1cc(C2CCN(C)CC2)[nH]c1-c1ccc(F)cc1.Cl.Cl

>  <cat>
NO

$$$$
>  <compound>
CN1CCC(c2cc(-c3ccncc3F)c(-c3ccc(F)cc3)[nH]2)CC1.Cl.Cl

>  <cat>
NO

$$$$
>  <compound>
CN1CCC(c2cc(-c3ccncc3Cl)c(-c3ccc(F)cc3)[nH]2)CC1.Cl.Cl

>  <cat>
NO

$$$$
>  <compound>
C[C@H]1CN(C)CC[C@@H]1c1cc(-c2ccncc2)c(-c2ccc(F)cc2)[nH]1.Cl.Cl

>  <cat>
YES

$$$$
>  <compound>
CC(O)c1cc(-c2cc(C3CCN(C)CC3)[nH]c2-c2ccc(F)cc2)ccn1.Cl.Cl (stereo not drawn)

>  <cat>
NO

$$$$
>  <compound>
CCOC(=O)c1c(C2CCN(C)CC2)[nH]c(-c2ccc(F)cc2)c1-c1ccncc1.Cl.Cl

>  <cat>
NO

$$$$
>  <compound>
C[C@H]1CN(C)CC[C@H]1c1cc(-c2ccncc2)c(-c2ccc(F)cc2)[nH]1.Cl.Cl (racemic)

>  <cat>
YES

$$$$
>  <compound>
C[C@H]1C[C@H](c2cc(-c3ccncc3)c(-c3ccc(F)cc3)[nH]2)CCN1C.Cl.Cl (racemic)

>  <cat>
YES

$$$$

---

test: Inhibition of recombinant Plasmodium falciparum PKG using FAM-PKA peptide as fluorescent substrate preincubated for 15 mins followed by substrate addition measured after 1 hr by fluorescence polarization based IMAP assay
Mark true only when IC50 stays strictly below 50 nM. Values equal to the cut-off are false.

>  <compound>
CN(C)Cc1c(C2CCN(C)CC2)[nH]c(-c2ccc(F)cc2)c1-c1ccncc1.Cl.Cl.Cl

>  <cat>
false

$$$$
>  <compound>
C=Cc1c(C2CCN(C)CC2)[nH]c(-c2ccc(F)cc2)c1-c1ccncc1.CC(=O)O

>  <cat>
false

$$$$
>  <compound>
CN1CCC(c2cc(-c3ccncc3)c(-c3ccc(C(F)(F)F)cc3)[nH]2)CC1.Cl.Cl

>  <cat>
false

$$$$
>  <compound>
CN1CCC(c2cc(-c3ccncc3Br)c(-c3ccc(F)cc3)[nH]2)CC1.Cl.Cl

>  <cat>
true

$$$$
>  <compound>
CN1CCC(c2cc(-c3ccncc3)c(-c3ccsc3)[nH]2)CC1.Cl.Cl

>  <cat>
false

$$$$
>  <compound>
CN1CCC(c2[nH]c(-c3ccc(F)cc3)c(-c3ccncc3)c2Br)CC1.Cl.Cl

>  <cat>
false

$$$$
>  <compound>
C[C@@H]1C[C@H](c2cc(-c3ccncc3)c(-c3ccc(F)cc3)[nH]2)CCN1C.Cl.Cl (racemic)

>  <cat>
true

$$$$
>  <compound>
C[C@@H]1CN(C)CC[C@@H]1c1cc(-c2ccncc2)c(-c2ccc(F)cc2)[nH]1.Cl.Cl

>  <cat>
true

$$$$
>  <compound>
Cc1cc(-c2cc(C3CCN(C)CC3)[nH]c2-c2ccc(F)cc2)ccn1.Cl.Cl

>  <cat>
false

$$$$
>  <compound>
CC(O)c1cc(-c2cc(C3CCN(C)CC3)[nH]c2-c2ccc(F)cc2)ccn1.Cl.Cl (stereo not given)

>  <cat>
false

$$$$
>  <compound>
COc1ccc(-c2[nH]c(C3CCN(C)CC3)cc2-c2ccncc2)cc1.Cl.Cl

>  <cat>
true

$$$$
>  <compound>
C[C@@H]1CN(C)CC[C@H]1c1cc(-c2ccncc2)c(-c2ccc(F)cc2)[nH]1.Cl.Cl (racemic)

>  <cat>
true

$$$$
>  <compound>
CC(=O)O.CN1CCC(c2[nH]c(-c3ccc(F)cc3)c(-c3ccncc3)c2CO)CC1

>  <cat>
false

$$$$
>  <compound>
CN1CCC(c2cc(-c3ccnc(C(N)=O)c3)c(-c3ccc(F)cc3)[nH]2)CC1.Cl.Cl

>  <cat>
false

$$$$
